Data origin: ChEMBL document CHEMBL3885861

# Organism: Rattus norvegicus
# protocol_notes: Open TG-GATES - Regimen: Single
# Format: toxicity, organism-based, Sprague-Dawley
# Design: regimen Single, gender Male, age 6 weeks
# test_context: in vivo, po, 0 mg/kg, 3 h, tissue Plasma, route gavage, dose level Control
Record form. Attribute: Cl. Fill in for each entry.
Give bare numbers, in meq/L.

> print(dat)
                                   molecule  measurement.unit  observed
1  COc1cc2c(c(OC)c1OC)-c1ccc(OC)c(=O)cc1[C@@H](NC(C)=O)CC2             meq/L     103.4
2  COc1ccc2[nH]c([S+]([O-])Cc3ncc(C)c(OC)c3C)nc2c1 (stereo not given)             meq/L     100.6
3  COC1=CC(=O)C[C@@H](C)[C@]12Oc1c(Cl)c(OC)cc(OC)c1C2=O             meq/L     104.4

The following molecules each have a reported value; give each one's Cl.
1. NNC(=O)c1ccncc1
2. CC1=C(/C=C/C(C)=C/C=C/C(C)=C/CO)C(C)(C)CCC1

*A*
104.2
107.6

====

Record form. Attribute: IP. Fill in for each entry.
# Species on record: Rattus norvegicus
# protocol_notes: Open TG-GATES - Regimen: Single
# Format: toxicity, organism-based, Sprague-Dawley
# Parameters: regimen Single, gender Male, age 6 weeks
# test_context: in vivo, po, 0 mg/kg, 9 h, tissue Plasma, route gavage, dose level Control
A complete answer gives the number and then names the unit.

Use these answered entries as a reference point.
> print(dat)
                                   compound    observed
1  CCCNC(=O)NS(=O)(=O)c1ccc(Cl)cc1 [CHLORPROPAMIDE]    10 mg/dL
2         CN(C)CCCN1c2ccccc2CCc2ccc(Cl)cc21  10.1 mg/dL
3  C[C@@H]1C[C@H]2[C@@H]3CCC4=CC(=O)C=C[C@]4(C)[C@@]3(F)[C@@H](O)C[C@]2(C)[C@@]1(O)C(=O)CO  10.1 mg/dL

*Q* # query: IP of entry CCOc1ccc(NC(=O)CC(C)O)cc1 (centres undefined)
*A* 9.8 mg/dL

====

# Organism: Rattus norvegicus
# protocol_notes: Open TG-GATES - Regimen: Single
# Assay type: toxicity, organism-based, Sprague-Dawley
# Parameters: regimen Single, gender Male, age 6 weeks
# test_context: in vivo, po, 0 mg/kg, 9 h, tissue Blood, route gavage, dose level Control
Record form. Attribute: MCH. Fill in for each entry.
Numbers only, in pg.

compound	MCH, pg
COc1ccc2[nH]c([S+]([O-])Cc3ncc(C)c(OC)c3C)nc2c1 (configuration not stated) [OMEPRAZOLE]	21.5
CC1=C(/C=C/C(C)=C/C=C/C(C)=C/CO)C(C)(C)CCC1 [RETINOL]	21.6

The following compounds each have a reported value; give each one's MCH.
1. COc1cc2c(c(OC)c1OC)-c1ccc(OC)c(=O)cc1[C@@H](NC(C)=O)CC2 [COLCHICINE]
2. COC1=CC(=O)C[C@@H](C)[C@]12Oc1c(Cl)c(OC)cc(OC)c1C2=O [GRISEOFULVIN]
3. CCOc1ccc(NC(=O)CC(C)O)cc1 (configuration not stated) [BUCETIN]
4. O=C(CCCN1CCC(O)(c2ccc(Cl)cc2)CC1)c1ccc(F)cc1 [HALOPERIDOL]
5. CN(C)CCN(Cc1cccs1)c1ccccn1
6. NNC(=O)c1ccncc1 [ISONIAZID]
7. NC(N)=Nc1nc(CSCCC(N)=NS(N)(=O)=O)cs1 [FAMOTIDINE]
8. CCCNC(=O)NS(=O)(=O)c1ccc(Cl)cc1 [CHLORPROPAMIDE]

*A*
21.6
21.4
21.3
22.1
21.1
21.8
22.9
21.3

The following compounds each have a reported value; give each one's MCH.
1. Cc1ccc(C)c(OCCCC(C)(C)C(=O)O)c1 [GEMFIBROZIL]
2. CCOC(=O)CCC(=O)O[C@H]1[C@H](O[C@@H]2[C@@H](C)[C@H](O[C@H]3C[C@@](C)(OC)[C@@H](O)[C@H](C)O3)[C@@H](C)C(=O)O[C@H](CC)[C@@](C)(O)[C@H](O)[C@@H](C)C(=O)[C@H](C)C[C@@]2(C)O)O[C@H](C)C[C@@H]1N(C)C [ERYTHROMYCIN ETHYLSUCCINATE]

*A*
1. 21.6
2. 20.4
